# Measured On: Calcium-dependent protein kinase 1 (Plasmodium falciparum (isolate 3D7))
# Assay Name: PfCDPK1 kinase inhibitors, biochemical, TCAMS library (AID 1159585);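 also: inhibitors leave more ATP so luminescence rises with inhibition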
# Run Conditions: recombinant PfCDPK1, Kinase-Glo ATP depletion luminescence
Potency and affinity values are given separately. Activity calls are given as the source filed them. The limit is not given here; nearly all actives have IC50 up to about 0.98 µM.

Molecule	Measured On	outcome
Cc1ccccc1C1CCN(C2CCC(NC(=O)/C=C/c3cccc(F)c3)CC2)CC1 (stereo not given)	Calcium-dependent protein kinase 1 (Plasmodium falciparum (isolate 3D7))	inactive
C/C(=N\NC(N)=O)C1=C(O)C(c2ccccc2)N(C2CCCCC2)C1=O (stereo not given)	Calcium-dependent protein kinase 1 (Plasmodium falciparum (isolate 3D7))	inactive
Cc1cccc2[nH]c(-c3cccc(-c4cccc(NC(=O)Cc5ccc[n+]([O-])c5)c4)c3)nc12	Calcium-dependent protein kinase 1 (Plasmodium falciparum (isolate 3D7))	inactive
O=C(Nc1ccc(-c2cccc(-c3nc4ccc(C(F)(F)F)cc4[nH]3)c2)cc1)c1cccnc1	Calcium-dependent protein kinase 1 (Plasmodium falciparum (isolate 3D7))	inactive
C[C@H](Cc1ccc(C[C@@H](C)NCC(O)c2cc(Cl)c(N)c(Cl)c2)cc1)NCC(O)c1cc(Cl)c(N)c(Cl)c1 (stereo not given in full)	Calcium-dependent protein kinase 1 (Plasmodium falciparum (isolate 3D7))	inactive
Cc1cccc2[nH]c(-c3ccc(-c4ccc(CN5CCCCC5CO)cc4)cc3)nc12 (stereo not given)	Calcium-dependent protein kinase 1 (Plasmodium falciparum (isolate 3D7))	inactive
FC(F)(F)c1cccc(C=NNc2nc3ccccc3[nH]2)c1	Calcium-dependent protein kinase 1 (Plasmodium falciparum (isolate 3D7))	inactive
CN(C)c1cc(N/N=C/c2cc(Cl)ccc2O)nc(N(C)C)n1	Calcium-dependent protein kinase 1 (Plasmodium falciparum (isolate 3D7))	inactive
COCc1cccc(-c2cc(-c3ccc(S(C)(=O)=O)cc3)cnc2N)c1	Calcium-dependent protein kinase 1 (Plasmodium falciparum (isolate 3D7))	inactive
O=C(NCC1CCN(Cc2ccc(F)cc2)C1)c1cc(-c2cccc(C(F)(F)F)c2)cs1 (stereo not given)	Calcium-dependent protein kinase 1 (Plasmodium falciparum (isolate 3D7))	inactive

* * *

# Assay Name: inhibition of 3D7 malaria parasite growth – strain 3D7 (AID 2306);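 also: 0% = DMSO wells and 100% = chloroquine plus artemisinin control wells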
# Run Conditions: P. falciparum 3D7 erythrocytic growth, LDH absorbance, 72 h; at 2 µM; stronger effect = higher value
Endpoint Label: growth inhibition (%)

Structure String	Units	Val
CCCCN(Cc1cc(Cl)c(OC)c(OC)c1)c1ccc(C(O)(C(F)(F)F)C(F)(F)F)cc1	%	98
COc1ccc(-c2cc(C(=O)N[C@@H](CC3CCCCC3)C(=O)NCCN3CCCCC3)ccc2O)cc1	%	98
CC(C)(C)OC(=O)N(Cc1cc(-n2nnnc2C(F)(F)F)ccc1O)[C@H]1CCCN(C(=O)OC(C)(C)C)[C@H]1c1ccccc1	%	98
Clc1ccc2c(NCCNc3ccnc4cc(Cl)ccc34)ccnc2c1	%	101
Cc1cccc2[nH]c(-c3ccc(-c4cccc(NC(=O)NCc5cccc(F)c5)c4)cc3)nc12	%	94
Cn1nccc1C(=O)NCCNCc1ccc(-c2ccc(-c3nc4ccc(C(F)(F)F)cc4[nH]3)cc2)cc1	%	100
CCc1c(C)nc2nc(Cc3cccc(F)c3)nn2c1N1CCN(c2ccccn2)CC1	%	100
O=C(NCCCCCN1CCC(c2c[nH]c3ccccc23)CC1)Nc1ccc(I)cc1	%	100
CC(C)(C)c1ccc(NC(=O)c2cccc(CN3CCCN(Cc4ccc(F)cc4)CC3)c2)cc1	%	88

* * *

# Assay Name: sensitizers of A549 cells to miR-34 induction, primary screen, imaging, A549 dox-inducible miR-34, nuclei and caspase counts (AID 1347080)
# Run Conditions: A549 miR-34 inducible, Hoechst nuclei count, 48 h; measured here: total cells without miR-34 induction
Returns True if the recorded cell count is greater than or equal to 9000, and False otherwise.

Compound	Classification
O=C(NCC(O)CO)c1c(I)c(C(=O)NCC(O)CO)c(I)c(N(CCO)C(=O)CO)c1I (stereo not drawn)	True
CCCCC[C@@H](O)[C@H]1C(=O)O[C@H](C)[C@@H](O)/C=C/C=C/C=C/C=C/C=C(\C)[C@@H](O)C[C@H](O)C[C@H](O)C[C@H](O)C[C@H](O)C[C@H](O)C[C@@H]1O	False
C=C1c2c(Cl)ccc(O)c2C(O)=C2C(=O)[C@]3(O)C(O)=C(C(N)=O)C(=O)[C@@H](N(C)C)[C@@H]3[C@@H](O)[C@H]12	True
COc1ccc(Cc2cnc(N)nc2N)cc1OC	False
CC[C@H]1OC(=O)C[C@@H](O)[C@H](C)[C@@H](O[C@@H]2O[C@H](C)[C@@H](O[C@H]3C[C@@](C)(O)[C@@H](O)[C@H](C)O3)[C@H](N(C)C)[C@H]2O)[C@@H](CC=O)C[C@@H](C)C(=O)/C=C/C(C)=C/[C@@H]1CO[C@@H]1O[C@H](C)[C@@H](O)[C@@H](OC)[C@H]1OC	True
CC[C@@H](C(=O)[C@@H](C)[C@@H](O)[C@H](C)CCc1ccc(C)c(O)c1C(=O)O)[C@H]1O[C@](CC)([C@H]2CC[C@](O)(CC)[C@H](C)O2)C[C@@H]1C	False
O=C(/C=C/c1ccc(O)cc1)c1ccc(O)cc1O	False

* * *

# Measured On: Mitogen-activated protein kinase 7 (Homo sapiens)
# Assay Name: ERK5 transactivation activators in reporter cells, primary screen, cell-based, HTS (AID 1508626);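 also: luciferase driven by Gal4-ERK5 fusion binding five Gal4 sites before minimal TATA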
# Run Conditions: HeLa Gal4-ERK5 transactivation, 18 h, at 5 µM, stronger effect = higher value
Active and inactive are the calls of the source.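 How the source made its calls: active means luciferase signal above three times the same-plate solvent-only control wells; inactive means the rest.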

Molecule	luciferase signal
O=C1C[C@@H](c2ccc(O)cc2)Oc2cc(O)cc(O)c21	40 AU (inactive)
COc1cc2ccc(=O)oc2cc1O	40 AU (inactive)
CC/C(=C(\c1ccccc1)c1ccc(OCCN(C)C)cc1)c1ccccc1	84 AU (inactive)
COC(=O)[C@]1(C)CCC[C@]2(C)c3ccc(C(C)C)cc3C(=O)CC12 (stereo not given in full)	32 AU (inactive)
CC(C)C1=CC2=CC[C@@H]3[C@](C)(CCC[C@@]3(C)C(=O)O)[C@H]2CC1	44 AU (inactive)
COc1cc(NS(C)(=O)=O)ccc1Nc1c2ccccc2nc2ccccc12	52 AU (inactive)
C#CC1(O)CC[C@H]2[C@@H]3CCC4=CCCC[C@@H]4[C@H]3CC[C@@]21C (stereo not given in full)	80 AU (inactive)
CC(C)c1ccc2c(c1)CCC1[C@](C)(CN)CCC[C@]21C (stereo not given in full)	48 AU (inactive)
COc1cc(O)c2c(=O)c(O)c(-c3ccc(O)c(O)c3)oc2c1	144 AU (inactive)
COc1cc([C@@H]2c3cc4c(cc3[C@H](O)[C@H]3COC(=O)[C@@H]23)OCO4)cc(OC)c1OC	76 AU (inactive)

* * *

# Assay Name: inhibitors of mitochondrial cytochrome c release, biochemical, purified mitochondria (AID 1603);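 also: mouse liver mitochondria challenged with calcium chloride; signal normalized to the plate average as 100%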
# Run Conditions: stronger effect = lower value

Molecule	cytochrome c release ratio
COc1ccc([C@@H]2CC(=O)c3c(O)cc(O)cc3O2)cc1O	0.93
O=C(O)CN(CCN(CC(=O)O)CC(=O)O)CC(=O)O	0.54
CN(C)CCOC(c1ccccc1)c1ccccc1 (tested in a mixture with another compound)	1.23
CCN(CC)Cc1ccc(Nc2ccnc3cc(Cl)ccc23)cc1O	0.74
CN[C@H](CC(=O)O)C(=O)O	0.78
CC1CCCC(C)N1NC(=O)c1ccc(Cl)c(S(N)(=O)=O)c1 (stereo not drawn)	0.96
CN1C2CCC1CC(OC(=O)C(CO)c1ccccc1)C2 (stereo not drawn)	1.14
CN(N=O)C(=O)N[C@@H]1[C@@H](O)[C@H](O)[C@@H](CO)O[C@@H]1O	1.09
CC(C)=CCC/C(C)=C/CO	1.17
CNCCC=C1c2ccccc2CCc2ccccc21	0.98
Cc1cc(NS(=O)(=O)c2ccc(N)cc2)no1	0.69
COC(=O)[C@H]1[C@H]2C[C@H]3c4[nH]c5ccccc5c4CCN3C[C@H]2CC[C@@H]1O	1.18
CC1=C(/C=C/C(C)=C/C=C/C(C)=C/C=C/C=C(C)/C=C/C=C(C)/C=C/C2=C(C)CCCC2(C)C)C(C)(C)CCC1	0.86
CN(C)CC/C=C1\c2ccccc2Sc2ccc(Cl)cc21	1.06
CCCn1c(=O)c2[nH]c(C3CCCC3)nc2n(CCC)c1=O	0.92
C=C[C@H]1CN2CC[C@H]1C[C@@H]2[C@@H](O)c1ccnc2ccc(OC)cc12	1.12
COc1cc(C)c2c(=O)cc(-c3ccccc3)oc2c1	1.19
CCOc1ccccc1OCC1CNCCO1 (stereo not drawn)	1.06
CN/C(=C\[N+](=O)[O-])NCCSCc1ccc(CN(C)C)o1	0.8
C=C1c2c(Cl)ccc(O)c2C(O)=C2C(=O)[C@]3(O)C(O)=C(C(N)=O)C(=O)[C@@H](N(C)C)[C@@H]3[C@@H](O)[C@H]12	0.58
COc1cc(CNC(=O)CCCC/C=C/C(C)C)ccc1O	1.29
COc1c(C)c2c(c(O)c1C/C=C(\C)CCC(=O)O)C(=O)OC2	1.22
C1N2CN3CN1CN(C2)C3	1.01
